meta.source: the supplement of paper PMC10307832

Tested on: ChaGo-K-1
Assay: relative viability (nuclei count vs DMSO), 5 days (fraction); higher = more cells survive
Conditions: first compound 2.53 µM
measured-quantity: relative viability
Just the number, please, no unit after it.

Prompt line: What does the record list as relative viability for Oc1nc(-c2ccc(C(F)(F)F)cc2)nc2c1CSCC2 [XAV939] + COc1cc2c(Oc3ccc(NC(=O)C4(C(=O)Nc5ccc(F)cc5)CC4)cc3F)ccnc2cc1OCCCN1CCOCC1 [Foretinib] (partner 0.25 µM) ?
Response line: 0.773

Prompt line: What does the record list as relative viability for C=C1C(=O)O[C@@H](CCCCCCCC)[C@@H]1C(=O)O [C-75] + COc1cc2c(Oc3ccc(NC(=O)C4(C(=O)Nc5ccc(F)cc5)CC4)cc3F)ccnc2cc1OCCCN1CCOCC1 [Foretinib] (partner 0.25 µM) ?
Response line: 0.925

Prompt line: What does the record list as relative viability for C=C1C(=O)O[C@@H](CCCCCCCC)[C@@H]1C(=O)O [C-75] + CCNC(=O)c1noc(-c2cc(C(C)C)c(O)cc2O)c1-c1ccc(CN2CCOCC2)cc1 [Luminespib] (partner 0.01 µM) ?
Response line: 0.638

Prompt line: What does the record list as relative viability for Oc1nc(-c2ccc(C(F)(F)F)cc2)nc2c1CSCC2 [XAV939] + CC(=O)c1c(C)c2cnc(Nc3ccc(N4CCNCC4)cn3)nc2n(C2CCCC2)c1=O [Palbociclib] (partner 0.5 µM) ?
Response line: 0.887

Prompt line: What does the record list as relative viability for C=C1C(=O)O[C@@H](CCCCCCCC)[C@@H]1C(=O)O [C-75] + N=C(N)NC(=N)NCCc1ccccc1 [Phenformin] (partner 250 µM) ?
Response line: 0.414

Prompt line: What does the record list as relative viability for Oc1nc(-c2ccc(C(F)(F)F)cc2)nc2c1CSCC2 [XAV939] + CC(=O)Nc1cccc(-n2c(=O)n(C3CC3)c(=O)c3c(Nc4ccc(I)cc4F)n(C)c(=O)c(C)c32)c1 [Trametinib] (partner 0.02 µM) ?
Response line: 0.802

Prompt line: What does the record list as relative viability for Oc1nc(-c2ccc(C(F)(F)F)cc2)nc2c1CSCC2 [XAV939] + CC(C)C[C@H](NC(=O)[C@H](Cc1ccccc1)NC(=O)c1cnccn1)B(O)O [Bortezomib] (partner 0.002 µM) ?
Response line: 0.941

Prompt line: What does the record list as relative viability for Oc1nc(-c2ccc(C(F)(F)F)cc2)nc2c1CSCC2 [XAV939] + CCNC(=O)c1noc(-c2cc(C(C)C)c(O)cc2O)c1-c1ccc(CN2CCOCC2)cc1 [Luminespib] (partner 0.01 µM) ?
Response line: 0.523

* * *

Test system: IA-LM
Assay: relative viability (nuclei count vs DMSO), 5 days (fraction); higher = more cells survive
Conditions: first compound 0.04 µM
Item-by-item account of relative viability
Just the number, please, no unit after it.

The examples below pair each entry with its known result.
Prompt line: What does the record list as relative viability for O=C(O)c1ccc(-c2c[nH]c3ncc(-c4ccccc4)cc23)cc1C1CCCC1 + C[C@@H](Oc1cc(-c2cnn(C3CCNCC3)c2)cnc1N)c1c(Cl)ccc(F)c1Cl [Crizotinib] (partner 1 µM) ?
Response line: 0.698

Prompt line: What does the record list as relative viability for O=C(O)c1ccc(-c2c[nH]c3ncc(-c4ccccc4)cc23)cc1C1CCCC1 + CS(=O)(=O)CCNCc1ccc(-c2ccc3ncnc(Nc4ccc(OCc5cccc(F)c5)c(Cl)c4)c3c2)o1 [Lapatinib] (partner 2 µM) ?
Response line: 0.913

Prompt line: What does the record list as relative viability for O=C(O)c1ccc(-c2c[nH]c3ncc(-c4ccccc4)cc23)cc1C1CCCC1 + O=C(CCCCCCC(=O)Nc1ccccc1)NO [Vorinostat] (partner 1 µM) ?
Response line: 0.976

Attention now turns to another entry.
Prompt line: What does the record list as relative viability for O=C(O)c1ccc(-c2c[nH]c3ncc(-c4ccccc4)cc23)cc1C1CCCC1 + CC1(C)CCC(c2ccc(Cl)cc2)=C(CN2CCN(c3ccc(C(=O)NS(=O)(=O)c4ccc(N[C@H](CCN5CCOCC5)CSc5ccccc5)c(S(=O)(=O)C(F)(F)F)c4)cc3)CC2)C1 [Navitoclax] (partner 0.5 µM) ?
Response line: 0.925

* * *

System: NCI-H2228
Assay: relative viability (nuclei count vs DMSO), 5 days (fraction); higher = more cells survive
Conditions: first compound 0.1265 µM
Item-by-item account of relative viability
Just the number, please, no unit after it.

The examples below pair each entry with its known result.
Prompt line: What does the record list as relative viability for O=C(O)c1ccc(-c2c[nH]c3ncc(-c4ccccc4)cc23)cc1C1CCCC1 + CC(=O)c1c(C)c2cnc(Nc3ccc(N4CCNCC4)cn3)nc2n(C2CCCC2)c1=O [Palbociclib] (partner 0.5 µM) ?
Response line: 0.736

Prompt line: What does the record list as relative viability for O=C(O)c1ccc(-c2c[nH]c3ncc(-c4ccccc4)cc23)cc1C1CCCC1 + Nc1nc2[nH]cc(CCc3ccc(C(=O)N[C@@H](CCC(=O)O)C(=O)O)cc3)c2c(=O)[nH]1 [Pemetrexed] (partner 0.2 µM) ?
Response line: 0.294

Prompt line: What does the record list as relative viability for O=C(O)c1ccc(-c2c[nH]c3ncc(-c4ccccc4)cc23)cc1C1CCCC1 + N=C(N)NC(=N)NCCc1ccccc1 [Phenformin] (partner 250 µM) ?
Response line: 0.344

Attention now turns to another entry.
Prompt line: What does the record list as relative viability for O=C(O)c1ccc(-c2c[nH]c3ncc(-c4ccccc4)cc23)cc1C1CCCC1 + O=C(CCCCCCC(=O)Nc1ccccc1)NO [Vorinostat] (partner 1 µM) ?
Response line: 0.652

* * *

System: NCI-H3122
Test: relative viability (nuclei count vs DMSO), 5 days (fraction); higher = more cells survive
Details: first compound 0.4 µM
Just a reminder that ties go to not satisfied: only relative viability strictly below 0.9 counts as satisfied.

Record excerpt, results attached:
Prompt line: Bench note: check whether O=C(O)c1ccc(-c2c[nH]c3ncc(-c4ccccc4)cc23)cc1C1CCCC1 + CC(C)C[C@H](NC(=O)[C@H](Cc1ccccc1)NC(=O)c1cnccn1)B(O)O [Bortezomib] (partner 0.002 µM) shows relative viability below 0.9
Response line: not satisfied

Prompt line: Bench note: check whether O=C(O)c1ccc(-c2c[nH]c3ncc(-c4ccccc4)cc23)cc1C1CCCC1 + CC(=O)c1c(C)c2cnc(Nc3ccc(N4CCNCC4)cn3)nc2n(C2CCCC2)c1=O [Palbociclib] (partner 0.5 µM) shows relative viability below 0.9
Response line: satisfied

Prompt line: Bench note: check whether O=C(O)c1ccc(-c2c[nH]c3ncc(-c4ccccc4)cc23)cc1C1CCCC1 + CS(=O)(=O)CCNCc1ccc(-c2ccc3ncnc(Nc4ccc(OCc5cccc(F)c5)c(Cl)c4)c3c2)o1 [Lapatinib] (partner 2 µM) shows relative viability below 0.9
Response line: not satisfied

Prompt line: Bench note: check whether O=C(O)c1ccc(-c2c[nH]c3ncc(-c4ccccc4)cc23)cc1C1CCCC1 + N=C(N)NC(=N)NCCc1ccccc1 [Phenformin] (partner 250 µM) shows relative viability below 0.9
Response line: satisfied

Prompt line: Bench note: check whether O=C(O)c1ccc(-c2c[nH]c3ncc(-c4ccccc4)cc23)cc1C1CCCC1 + Cc1cc(Nc2cc(N3CCN(C)CC3)nc(Sc3ccc(NC(=O)C4CC4)cc3)n2)n[nH]1 [Tozasertib] (partner 0.1 µM) shows relative viability below 0.9
Response line: satisfied

Further cases:
Prompt line: Bench note: check whether O=C(O)c1ccc(-c2c[nH]c3ncc(-c4ccccc4)cc23)cc1C1CCCC1 + CC1(C)CCC(c2ccc(Cl)cc2)=C(CN2CCN(c3ccc(C(=O)NS(=O)(=O)c4ccc(N[C@H](CCN5CCOCC5)CSc5ccccc5)c(S(=O)(=O)C(F)(F)F)c4)cc3)CC2)C1 [Navitoclax] (partner 0.5 µM) shows relative viability below 0.9
Response line: not satisfied

* * *

Tested on: NCI-H2347
Assay: relative viability (nuclei count vs DMSO), 5 days (fraction); higher = more cells survive
Details: first compound 0.1581 µM
Item-by-item account of relative viability
Just the number, please, no unit after it.

Prompt line: What does the record list as relative viability for CC1(C)CCC(c2ccc(Cl)cc2)=C(CN2CCN(c3ccc(C(=O)NS(=O)(=O)c4ccc(N[C@H](CCN5CCOCC5)CSc5ccccc5)c(S(=O)(=O)C(F)(F)F)c4)cc3)CC2)C1 [Navitoclax] + CS(=O)(=O)N1CCN(Cc2cc3nc(-c4cccc5[nH]ncc45)nc(N4CCOCC4)c3s2)CC1 [Pictilisib] (partner 1 µM) ?
Response line: 0.395

Attention now turns to another entry.
Prompt line: What does the record list as relative viability for CC1(C)CCC(c2ccc(Cl)cc2)=C(CN2CCN(c3ccc(C(=O)NS(=O)(=O)c4ccc(N[C@H](CCN5CCOCC5)CSc5ccccc5)c(S(=O)(=O)C(F)(F)F)c4)cc3)CC2)C1 [Navitoclax] + NC(=O)Nc1cc(-c2cccc(F)c2)sc1C(=O)N[C@H]1CCCNC1 [AZD7762] (partner 0.2 µM) ?
Response line: 0.685
